Recorded pEC50 values for a group of compounds are listed next.
# ASSAYED_TARGET: FSHR (Homo sapiens)
# Construct: expressed in transfected cells; host or cells: CHO (Cho-FSHR-LUC-1-1-43)
# Sequence (P23945 18-695): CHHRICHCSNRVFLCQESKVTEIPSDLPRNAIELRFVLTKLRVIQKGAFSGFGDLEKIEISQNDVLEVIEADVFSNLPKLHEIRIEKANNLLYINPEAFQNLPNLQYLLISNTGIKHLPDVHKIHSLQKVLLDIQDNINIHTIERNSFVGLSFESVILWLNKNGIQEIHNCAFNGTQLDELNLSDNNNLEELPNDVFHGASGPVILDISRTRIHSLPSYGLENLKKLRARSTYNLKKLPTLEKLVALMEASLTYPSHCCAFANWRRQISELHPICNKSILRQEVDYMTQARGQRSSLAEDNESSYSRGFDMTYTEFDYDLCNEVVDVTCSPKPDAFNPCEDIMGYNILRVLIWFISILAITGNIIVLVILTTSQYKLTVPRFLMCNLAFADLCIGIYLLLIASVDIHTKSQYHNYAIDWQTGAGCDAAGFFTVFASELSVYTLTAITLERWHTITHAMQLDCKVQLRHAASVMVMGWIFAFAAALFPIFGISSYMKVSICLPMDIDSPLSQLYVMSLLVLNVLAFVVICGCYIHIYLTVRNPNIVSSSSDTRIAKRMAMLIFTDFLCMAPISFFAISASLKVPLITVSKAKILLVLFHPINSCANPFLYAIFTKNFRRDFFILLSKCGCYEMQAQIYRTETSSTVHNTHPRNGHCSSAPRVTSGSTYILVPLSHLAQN
# Sequence (P01215 25-116 partner): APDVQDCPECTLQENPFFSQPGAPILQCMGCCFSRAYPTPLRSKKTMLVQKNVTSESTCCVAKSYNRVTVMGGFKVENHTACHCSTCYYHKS
# Sequence (P01225 19-129 partner): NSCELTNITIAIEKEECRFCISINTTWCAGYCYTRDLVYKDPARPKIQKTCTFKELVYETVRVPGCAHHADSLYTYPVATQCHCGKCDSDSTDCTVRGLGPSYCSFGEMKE
# METHOD: EC50 of cyclic AMP production in CHO FSHR cells + EC20 FSH (Assay A)
# Assay type: cell-based
# REPORTED_CONDITIONS: CHO FSHR cells + EC20 FSH; Table 2; read-out: Assay A EC50 of cyclic AMP production
pEC50: −log10 of the molar value.

# example entries with known answers
Cc1ccccc1N1CCN(c2ccc(C(=O)NCCCc3ccccc3O)cc2NC(=O)c2ccco2)CC1 ... 6.00 to 7.00
Cc1ccc(C(=O)Nc2cc(C(=O)NCCCN3CCCC3=O)ccc2N2CCN(c3ccccc3C#N)CC2)o1 ... 5.00 to 6.00
Cc1ccc(C(=O)Nc2cc(C(=O)N3CC4(COC4)C3)ccc2N2CCN(c3ccccc3C)CC2)o1 ... < 5.00

Q: Which pEC50 value belongs to Cc1ccccc1N1CCN(c2ccc(C(=O)NCCCNC(=O)C(C)C)cc2NC(=O)c2coc(C3CC3)n2)CC1 ?
A: 6.00 to 7.00
